- ASSAY_EXPLANATION: BET inhibitor-based combinations targeting novel dependencies in MECOM-rearranged (r) AML: OCI-AML3 cell line (AID 2202232); also: nearly all actives have a fitted effect of over 35% in size
- RECORDED_CONDITIONS: CellTiter-Glo luminescence, 48 h; OCI-AML3 viability; series mostly up to 46 µM
Records with an inconclusive call do not appear. Calls of active or inactive are those of the source. Calls follow the shape of the dose curve; as a rule, active = well fitted inhibition curve with a large enough effect; inconclusive = small, poorly fitted or top-dose-only effect; inactive = no such curve, though single readings can be large or run the other way.
Classes used: active, inactive

- COMPOUND: "O=C(CBr)N1CC([N+](=O)[O-])([N+](=O)[O-])C1"
  QUALITATIVE_LABEL: "active"
- COMPOUND: "CCOC(=O)Nc1ccc(NCc2ccc(F)cc2)cc1N"
  QUALITATIVE_LABEL: "inactive"
- COMPOUND: "CC(=O)Nc1ccc(OC[C@](C)(O)C(=O)Nc2ccc([N+](=O)[O-])c(C(F)(F)F)c2)cc1"
  QUALITATIVE_LABEL: "inactive"
- COMPOUND: "CN(C)CCN(C)CCc1ccc(Cl)c(Cl)c1"
  QUALITATIVE_LABEL: "inactive"
- COMPOUND: "C[C@@H](C1CC[C@@]2(O)C3=CC(=O)[C@@H]4C[C@@H](O)[C@@H](O)C[C@]4(C)[C@H]3CC[C@]12C)[C@H](O)CCC(C)(C)O (stereo partly drawn)"
  QUALITATIVE_LABEL: "inactive"
- COMPOUND: "O=C(O)CNC(=O)C1C(=O)N(C2CCCCC2)C(=O)N(C2CCCCC2)C1=O"
  QUALITATIVE_LABEL: "inactive"
- COMPOUND: "Cc1ccccc1-n1c(Cn2ncc3c(N)ncnc32)nc2cccc(C)c2c1=O"
  QUALITATIVE_LABEL: "inactive"
- COMPOUND: "COC1(CS(=O)c2ccccc2)CCN(CCc2c[nH]c3ccc(F)cc23)CC1 (stereo not drawn)"
  QUALITATIVE_LABEL: "active"
- COMPOUND: "C[C@](O)(COc1ccc(C#N)cc1)C(=O)Nc1ccc(C#N)c(C(F)(F)F)c1"
  QUALITATIVE_LABEL: "inactive"
- COMPOUND: "COc1ccc(C(=O)c2c(C)n(CCN3CCOCC3)c3ccccc23)cc1"
  QUALITATIVE_LABEL: "active"
- COMPOUND: "CCCCCCC(C)(C)c1cc(O)c2c(c1)OC(C)(C)C1CC=C(CO)C[C@H]21 (stereo partly drawn)"
  QUALITATIVE_LABEL: "active"
- COMPOUND: "C=C(C)[C@@H]1CCC(C)=C[C@H]1c1c(O)cc(CCCCC)cc1O"
  QUALITATIVE_LABEL: "active"
- COMPOUND: "O=C(O)CNC(=O)c1c(O)c2ccccc2n(Cc2ccccc2)c1=O"
  QUALITATIVE_LABEL: "inactive"
- COMPOUND: "C[C@@H]1O[C@@H](O[C@H]2C[C@@H](O)[C@]3(CO)[C@H]4[C@H](O)C[C@]5(C)[C@@H](C6=CC(=O)OC6)CC[C@]5(O)[C@@H]4CC[C@]3(O)C2)[C@H](O)[C@H](O)[C@H]1O"
  QUALITATIVE_LABEL: "active"
- COMPOUND: "CCN(CC)C(=O)c1ccc(C2=CC3(CCNCC3)Oc3cccc(O)c32)cc1"
  QUALITATIVE_LABEL: "inactive"
- COMPOUND: "Cc1[nH]nc2ccc(-c3cncc(OC[C@@H](N)Cc4c[nH]c5ccccc45)c3)cc12"
  QUALITATIVE_LABEL: "active"
- COMPOUND: "CN1[C@H]2CC(O)C[C@H]1[C@H]1O[C@H]12 (stereo partly drawn)"
  QUALITATIVE_LABEL: "inactive"
- COMPOUND: "O=c1[nH]c2ccccc2n1C1CCN(Cc2ccc(-c3[nH]c4cc5ncnc5cc4nc3-c3ccccc3)cc2)CC1"
  QUALITATIVE_LABEL: "active"
- COMPOUND: "CC(C)C[C@H](CN)CC(=O)O"
  QUALITATIVE_LABEL: "inactive"
- COMPOUND: "CN[C@@H]1C[C@H]2O[C@@](C)([C@@H]1OC)n1c3ccccc3c3c4c(c5c6ccccc6n2c5c31)C(=O)NC4"
  QUALITATIVE_LABEL: "active"
- COMPOUND: "CN1CCN(c2ccc([N+](=O)[O-])c3no[n+]([O-])c23)CC1"
  QUALITATIVE_LABEL: "active"
- COMPOUND: "C[C@]12CCC(=O)C(O)=C1CC[C@@H]1[C@@H]2CC[C@]2(C)C(=O)CC[C@@H]12"
  QUALITATIVE_LABEL: "inactive"
- COMPOUND: "CCN1C[C@]2(OC(=O)c3ccccc3NC(C)=O)CC[C@H](OC)[C@@]34[C@H]5CC6[C@@H](OC)C[C@](O)(C(C[C@@H]23)[C@@H]14)[C@@]5(O)[C@@H]6OC"
  QUALITATIVE_LABEL: "inactive"
- COMPOUND: "CC(C)c1cccc(C(C)C)c1O"
  QUALITATIVE_LABEL: "inactive"
- COMPOUND: "N#CC(O[C@@H]1O[C@H](CO[C@@H]2O[C@H](CO)[C@@H](O)[C@H](O)[C@H]2O)[C@@H](O)[C@H](O)[C@H]1O)c1ccccc1 (stereo partly drawn)"
  QUALITATIVE_LABEL: "inactive"
- COMPOUND: "COc1cc(C)[nH]c(=O)c1CNC(=O)c1c(C)n([C@H](C)C2CCN(CC(F)(F)F)CC2)c2ccccc12"
  QUALITATIVE_LABEL: "active"
- COMPOUND: "O=P1(N(CCCl)CCCl)NCCCO1 (stereo not drawn)"
  QUALITATIVE_LABEL: "inactive"
- COMPOUND: "O=C(Nc1ccncc1)C(=O)c1cn(Cc2ccc(Cl)cc2)c2ccccc12"
  QUALITATIVE_LABEL: "active"
- COMPOUND: "O=c1[nH]c2ccc(Cl)cc2c(N[C@@H]2CN3CCC2CC3)c1-c1nc2ccccc2[nH]1"
  QUALITATIVE_LABEL: "active"
- COMPOUND: "NC(=O)[C@@H](CC1CC1)[C@@H](CCC(F)(F)F)C(=O)N[C@H]1N=C(c2ccccc2)c2cccc(F)c2NC1=O"
  QUALITATIVE_LABEL: "inactive"
- COMPOUND: "O=C1CC[C@@]2(O)[C@H]3Cc4ccc(O)c5c4[C@@]2(CCN3CC2CC2)[C@H]1O5"
  QUALITATIVE_LABEL: "inactive"
- COMPOUND: "Cc1sc2c(c1C)C(c1ccc(Cl)cc1)=NC(CC(=O)Nc1ccc(O)cc1)c1nnc(C)n1-2 (stereo not drawn)"
  QUALITATIVE_LABEL: "active"
- COMPOUND: "N[C@@H]1C[C@H]1c1ccccc1"
  QUALITATIVE_LABEL: "inactive"
- COMPOUND: "Cn1c(CCCCCCC(=O)NO)nc2cc(N(CCCl)CCCl)ccc21"
  QUALITATIVE_LABEL: "active"
- COMPOUND: "Cc1ccccc1-n1c(Cn2cnc3c(N)ncnc32)nc2cccc(C)c2c1=O"
  QUALITATIVE_LABEL: "active"
- COMPOUND: "CN1C(=O)COc2c(C(=O)NC3CN4CCC3CC4)cc(Cl)cc21 (stereo not drawn)"
  QUALITATIVE_LABEL: "inactive"
- COMPOUND: "O=c1cccc2n1CC1CNC[C@H]2C1"
  QUALITATIVE_LABEL: "inactive"
- COMPOUND: "CC(C)(C)c1cc(C=C(C#N)C#N)cc(Br)c1O"
  QUALITATIVE_LABEL: "active"
